Readings of inhibition for the listed compounds
# Test description: inhibitors of TNFa-induced NFkB p65 translocation, primary screen, imaging, HUVEC, MLSMR starter and 10KST1 sets (AID 438);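 note: compound added about 3h40 before a 20 min TNFalpha stimulation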;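 for inhibition: signal is the nuclear over cytoplasmic p65 intensity ratio per well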
# Run conditions: HUVEC TNFa-induced p65 nuclear translocation; at 2 µM, stronger effect = higher value, 0% TNFa-plus-vehicle, 100% no-TNFa wells
Observed property: inhibition (%)

COc1ccc(CNCC(=O)Nc2cc(C)nn2-c2nc(C)cc(C)n2)cc1OC    6.7
COc1ccc(-n2c(SCC#N)nc3ccccc3c2=O)cc1    -4.7
O=C(NCCCN1CCOCC1)c1cc(-c2ccc(O)cc2)on1    -1.6
O=C(NCCN1C(=O)C2C3C=CC(C3)C2C1=O)Nc1ccccn1 (stereo unspecified)    0.8
Cc1cc(C)c2ccc(N)nc2c1O    0.1
CCN(CC)S(=O)(=O)c1ccc(S(=O)(=O)N(Cc2ccccn2)Cc2ccco2)cc1    -0.8

###

# Test description: inhibitors of TNFa-induced NFkB p65 translocation, primary screen, imaging, HUVEC, MLSMR starter and 10KST1 sets (AID 438);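 note: compound added about 3h40 before a 20 min TNFalpha stimulation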
# Run conditions: HUVEC TNFa-induced p65 nuclear translocation; measured here: nuclei count (cytotoxicity indicator), at 2.08 µM
Observed property: cell count

Cn1c(=O)c2c(nc(-n3ccnc3)n2C)n(C)c1=O    311
CC(=O)OC(C(=O)NC1CCCCC1)c1ccncc1 (stereo unspecified)    614
Cc1ccc(C(C)C)c(OCCn2c(=O)oc3ccccc32)c1    540
CCCCN(CCCC)CCn1cnc2c([nH]c3ccc(OC)cc32)c1=O    569
COCCn1nnnc1CN(Cc1cccnc1)Cc1cc2cc(OC)ccc2[nH]c1=O    670
COc1ccc(CN(Cc2nc3ccccc3c(=O)[nH]2)C(=O)NC2CCCCC2)cc1    389
COc1ccc(NC(=O)c2cc(C(C)C)on2)c(OC)c1    568
COc1cccc(C2CC(=O)Nc3cc4c(cc32)OCCO4)c1OC(C)C (stereo unspecified)    556
CCOC(=O)c1c(C)[nH]c(C(=O)Cn2c(=O)oc3ccccc32)c1C    256
Cc1ccc(-c2noc(CN3CCN(c4ccccc4F)CC3)n2)cc1    468
COC(=O)C(CC(C)C)NC(=O)CSc1nc(-c2ccccc2)c(C#N)c(=O)[nH]1 (stereo unspecified)    467

###

# Test description: reduction of polyQ htt aggregates in cells – imaging, exon1htt(103Q)mCFP cells, high-content imaging, primary screen (AID 483);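 note: compound exposure lasted 3 days before fixation; percent of the per-plate median nuclei count of sample wells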
# Run conditions: exon1htt(103Q)mCFP cell line, aggregate imaging, at 2 µM; measured here: cell count, toxicity
# nuclei count values compiled below
Observed property: nuclei count

COC(=O)c1c(-c2cccs2)csc1NC(=O)CN1CCOCC1    106%
COc1ccc(CN(Cc2cc3cc4c(cc3[nH]c2=O)OCO4)C(=O)NC2CCCCC2)cc1    73.1%
CC1CCCN(C(=O)c2cc(F)c(F)cc2Cl)C1 (stereo unspecified)    88.6%
CC(C)CCNC(=O)C(C)N(Cc1ccc(F)cc1)C(=O)c1ccc(CN2CCCCC2)o1 (stereo unspecified)    75.3%
C=C(C)COc1ccc(-c2n[nH]c(C)c2-c2ccccc2)c(O)c1    99.2%
CCn1c2ccccc2c2cc(N)ccc21    91.5%
CCOC(=O)Nc1ccc(NS(=O)(=O)c2ccc(C)cc2)cc1    114%
Cn1c(C(=O)N2CCN(C(=O)c3ccco3)CC2)cc2c(=O)n3ccccc3nc21    111%
CN(C)c1nc(Oc2ccc(=O)n(C)n2)nc(N2CCOCC2)n1    93.3%
CC(=O)NC(C)c1nc2ccccc2n1C(C)C (stereo unspecified)    98.7%
COc1ccccc1C(=O)N1CCN(C(=O)c2ccncc2)CC1    92.4%

###

# Test description: TLR3 IRF3 reporter activation blockers – cell-based, poly I:C stimulus, luciferase, 10K MLSCN set, primary screen (AID 602277)
# Run conditions: HEK293-TLR3 RL24 IRF3 luciferase reporter, at 10 µM, stronger effect = higher value
Observed property: inhibition (%)

CCN(C(=O)c1cc(Cl)ccc1OC)c1ccccc1    48.8
Cc1nn(-c2ccccc2)c2sc(C(=O)N3CCOCC3)cc12    -21.6
COC(=O)c1ccc(C2CC(=O)Nc3cc(OC)c(OC)c(OC)c32)cc1 (stereo unspecified)    25.2
CC(C)CC(c1nnnn1CC1CCCO1)N1CCN(Cc2ccc3c(c2)OCO3)CC1 (stereo unspecified)    25
CC1CCN(c2nc3c(c(=O)[nH]c(=O)n3C)n2CCSc2ncccn2)CC1    24.8
CCOc1cc(C(=O)NCc2ccncc2)cc(OCC)c1OCC    18.3
CCOC(=O)c1cc2sc(C)cc2n1CC(=O)NCc1ccc(F)cc1    16.7
Cc1cc(C(=O)OCCO)c(C#N)c(N)n1    18.4
CCOc1ccccc1CNC(=O)CCN1C(=O)COc2ccccc21    2.75
COCCN(CCOC)Cc1c(C)[nH]c2ccccc2c1=O    24.8
CCN(CC)CCCN1C(=O)C(=O)/C(=C(/O)c2ccc3c(c2)OCO3)C1c1ccccn1 (stereo unspecified)    12.1

###

# Target or system: Voltage-gated potassium channel subunit beta-2 (Rattus norvegicus)
# Test description: enhancers of rat Kvbeta2 NADPH turnover – biochemical, NADPH fluorescence, primary screen (AID 623);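 note: fluorescence intensity change per second fitted from 20 to 320 s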
# Run conditions: Recombinant KvBeta, NADPH fluorescence decrease slope, 10 min; at 10 µM; stronger effect = lower value
NADPH fluorescence slope reference
Observed property: NADPH fluorescence slope

CC(C)CC(=O)Nc1ccccc1-c1nnn(CC(=O)N2CCOCC2)n1    -6.6e-05
Nc1c(S(=O)(=O)c2cccs2)c2nc3ccccc3nc2n1CC1CCCO1 (centres undefined)    2.8e-06
O=C(O)CCNc1nc(-c2ccccc2)nc2ccccc12    3e-05
COc1ccc(-c2cc3ccc(OCc4nn[nH]n4)cc3oc2=O)cc1    1.1e-06
Cn1c(=O)c2c(nc(-n3ccnc3)n2C)n(C)c1=O    8.4e-06
CC(C)CCN1CC(C(=O)NCc2ccccc2)CC1=O (centres undefined)    -1.6e-05
COc1cc(NC2=CC(=O)CC(C)(C)C2)cc(OC)c1    6.9e-06
Cc1ccc(-c2nnc3c4ccccc4c(C)nn23)cc1NC(=O)c1ccco1    2.3e-05
COc1ccc(OC)c(C(C)NC=O)c1 (centres undefined)    1.3e-05
O=C(Cn1cnc2c(cnn2-c2ccc(F)cc2)c1=O)N1CCCc2ccccc21    -5.2e-05
C=CCn1c(SC(C)C(=O)NC2(C#N)CCCCC2)nnc1-c1ccc(OC)cc1 (centres undefined)    -3.3e-05
COc1ccc(OCc2nc(C#N)c(N3CCN(c4ccc(OC)cc4)CC3)o2)cc1    2.3e-05
O=C(Nc1nccs1)c1cccc(NC(=O)C2CC2)c1    -3.4e-05
CCC(C)C(=O)Nc1nc2c(s1)C(=O)CC(C)(C)C2 (centres undefined)    -2.6e-05
Cc1ccc(C(=O)CC2(O)C(=O)N(C)c3ccc(Br)cc32)c(C)c1 (centres undefined)    -5.1e-05
Cc1cc(NC(=O)CSc2nc(CCC3CCCC3)nc3ccccc23)no1    4e-06
COc1ccc(NC(=O)C2CCCN(S(=O)(=O)c3cccc4cccnc34)C2)cc1OC (centres undefined)    8e-06
O=C(NCN1CCCCC1)c1cnccn1    -8.7e-05
O=C(OCn1nnc2ccccc2c1=O)C1CCN(S(=O)(=O)c2cccs2)CC1    9.4e-06
COc1cc(OC)cc(OCC(O)Cn2cnc(-c3ccccc3)c2)c1 (centres undefined)    -4e-05
CN1CCCN(CC(O)COCc2cccs2)CC1 (centres undefined)    -3.2e-05
COCCOC(=O)/C=C1/NC(=O)CS1    -1.8e-05
CC1CN(C(=O)CSc2nnc(-c3ccc(Cl)cc3)n2C)CC(C)O1 (centres undefined)    -3.8e-05
CSc1ccccc1N=CC1=C(O)CC(C)(C)CC1=O    -0.000148

###

# Test description: inhibitors of TNFa-induced NFkB p65 translocation, primary screen, imaging, HUVEC, MLSMR starter and 10KST1 sets (AID 438);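 note: compound added about 3h40 before a 20 min TNFalpha stimulation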;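 for inhibition: signal is the nuclear over cytoplasmic p65 intensity ratio per well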
# Run conditions: HUVEC TNFa-induced p65 nuclear translocation; at 2 µM, stronger effect = higher value, 0% TNFa-plus-vehicle, 100% no-TNFa wells
Observed property: inhibition (%)

CN(C)CCCn1c(N)c(C#N)c2nc(C#N)c(C#N)nc21    -14.6
COCCN(Cc1cc2cccc(C)c2[nH]c1=O)C(=O)c1ccccc1    -22.3
N#CC1=C(N)SC(N)=C(C#N)C1c1ccc(C(F)(F)F)cc1    -1.5
Cc1cc(C)c(C)c(OCC(=O)NCC2CCCO2)c1 (stereo unspecified)    -13.5
Cc1ccc(CCNC(=O)CC2Oc3ccc(C)cc3NC2=O)cc1 (stereo unspecified)    5.5
O=C(NC1CCCC1)C(c1cccs1)N(C(=O)c1ccno1)c1ccccc1 (stereo unspecified)    -3.2

These data points were gathered from PubChem BioAssay.
